Source: ChEMBL document CHEMBL4052585

Assay: Oral bioavailability in Sprague-Dawley rat at 5 mg/kg
Format: ADME, organism-based
Details: in vivo
Recorded bioavailability by entry
Please state the figure in %; there is no need to write the unit.

What the record says about Cc1cc([C@](C)(O)C#Cc2cc3c(cc2F)C2CC(C2)n2cc(C(N)=O)nc2-3)no1 : bioavailability is 27

What the record says about CNC(=O)c1c(C(N)=O)nc2n1CCOc1ccc(C#C[C@@](C)(O)c3cc(C)on3)cc1-2 : bioavailability is 51

* * *

Assay: Oral bioavailability in beagle dog at 5 mg/kg
Format: ADME, organism-based, Canis lupus familiaris
Details: in vivo
VALUE_TYPE: bioavailability (%)
Please state the figure in %; there is no need to write the unit.

What the record says about CNC(=O)c1c(C(N)=O)nc2n1CCOc1ccc(C#C[C@@](C)(O)c3cc(C)on3)cc1-2 : bioavailability is 140

* * *

Assay: Plasma clearance in beagle dog
Format: ADME, Canis lupus familiaris
VALUE_TYPE: clearance

What the record says about CNC(=O)c1c(C(N)=O)nc2n1CCOc1ccc(C#C[C@@](C)(O)c3cc(C)on3)cc1-2 : clearance is 7 mL/min/kg

* * *

Target: Mitogen-activated protein kinase kinase kinase 14 (Homo sapiens, UniProt Q99558)
Sequence (Q99558 whole entry): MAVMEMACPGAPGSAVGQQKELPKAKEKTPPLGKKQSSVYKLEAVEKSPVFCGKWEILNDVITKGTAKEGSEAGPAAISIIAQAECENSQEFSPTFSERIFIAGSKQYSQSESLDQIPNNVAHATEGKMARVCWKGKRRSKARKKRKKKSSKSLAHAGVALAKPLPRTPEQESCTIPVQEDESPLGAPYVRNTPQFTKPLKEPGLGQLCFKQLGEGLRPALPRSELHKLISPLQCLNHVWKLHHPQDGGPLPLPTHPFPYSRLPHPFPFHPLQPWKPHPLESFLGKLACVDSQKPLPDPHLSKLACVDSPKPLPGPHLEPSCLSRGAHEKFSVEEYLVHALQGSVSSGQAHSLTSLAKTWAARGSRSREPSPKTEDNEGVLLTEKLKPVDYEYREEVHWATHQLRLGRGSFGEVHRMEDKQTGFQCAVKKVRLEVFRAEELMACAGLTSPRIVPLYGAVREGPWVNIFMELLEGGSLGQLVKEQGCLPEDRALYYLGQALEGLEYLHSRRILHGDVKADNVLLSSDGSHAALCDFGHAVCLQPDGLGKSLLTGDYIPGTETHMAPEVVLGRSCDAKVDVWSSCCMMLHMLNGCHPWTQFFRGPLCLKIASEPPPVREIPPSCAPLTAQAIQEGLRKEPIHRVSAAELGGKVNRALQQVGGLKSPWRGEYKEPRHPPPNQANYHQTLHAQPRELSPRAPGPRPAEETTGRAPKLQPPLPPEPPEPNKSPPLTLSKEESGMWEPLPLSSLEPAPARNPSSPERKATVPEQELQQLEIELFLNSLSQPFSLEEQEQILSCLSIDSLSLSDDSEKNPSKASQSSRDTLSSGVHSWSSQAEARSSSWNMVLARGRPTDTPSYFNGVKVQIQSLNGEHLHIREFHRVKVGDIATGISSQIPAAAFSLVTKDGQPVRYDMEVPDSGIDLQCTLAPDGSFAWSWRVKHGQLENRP
Test: Inhibition of NIK (unknown origin) after 1 to 2 hrs by ADP-FP assay
Recorded pKi by entry
Would you please state pKi, meaning minus log10 of the concentration in mol/L, as a bare number?

// known answers, use as guide
CC(C)(O)C#Cc1cc2c(cc1F)OCCn1c-2nc(C(N)=O)c1C#N
6.70
CC(O)(C#Cc1cc2c(cc1F)OCCn1cc(C(N)=O)nc1-2)c1cccnn1 (racemic)
8.49

What the record says about CC(C)(O)C#Cc1cc2c(cc1F)OCCn1c-2nc(C(N)=O)c1C1CC1 : pKi is 7.39

What the record says about CC(C)(O)C#Cc1cc2c(cc1F)OCCn1cc(C(N)=O)nc1-2 : pKi is 7.44

* * *

Molecular target: Mitogen-activated protein kinase kinase kinase 14 (Homo sapiens, UniProt Q99558)
Test: Inhibition of NIK in human HeLa cells assessed as decrease in antilymphotoxin-beta receptor antibody-stimulated p52 translocation from cytoplasm to nucleus after 5 hrs
Type: cell-based
VALUE_TYPE: IC50 (nM)
Please state the figure in nM; there is no need to write the unit.

Cc1cc([C@](C)(O)C#Cc2cc3c(cc2F)C2CC(C2)n2cc(C(N)=O)nc2-3)no1
199

Then there is this compound:
What the record says about Cc1cc([C@](C)(O)C#Cc2cc3c(cc2F)OCCn2cc(C(N)=O)nc2-3)no1 : IC50 is 607

* * *

Recorded pKi by entry
Molecular target: Mitogen-activated protein kinase kinase kinase 14 (Homo sapiens, UniProt Q99558)
Assay: Inhibition of NIK (unknown origin) after 1 to 2 hrs by ADP-FP assay
Would you please state pKi, meaning minus log10 of the concentration in mol/L, as a bare number?

NC(=O)c1cn2c(n1)-c1cc(C#CC3(O)CCC3)c(F)cc1OCC2
7.69
Cn1nccc1Cc1c(C(N)=O)nc2n1CCOc1cc(F)c(C#CC(C)(C)O)cc1-2
8.00
CC(C)(O)C#Cc1ccc2c(c1)-c1nc(C(N)=O)sc1C(O)CO2 (racemic)
7.00

Then there is this compound:
Summary: CNC(=O)c1c(C(N)=O)nc2n1CCOc1cc(F)c(C#CC(C)(C)O)cc1-2 , Mitogen-activated protein kinase kinase kinase 14 (Homo sapiens, UniProt Q99558), pKi = 8.70

* * *

Target: Mitogen-activated protein kinase kinase kinase 14 (Homo sapiens, UniProt Q99558)
Assay: Inhibition of NIK (unknown origin) expressed in HEK293 cells assessed as decrease in NFkappaB signal after 24 hrs by dual glo luciferase reporter gene assay
Type: cell-based
VALUE_TYPE: IC50

CNC(=O)c1c(C(N)=O)nc2n1CCOc1ccc(C#C[C@@](C)(O)c3cc(C)on3)cc1-2
40 nM
Cc1cc([C@](C)(O)C#Cc2cc3c(cc2F)OCCn2cc(C(N)=O)nc2-3)no1
156 nM

Then there is this molecule:
What the record says about Cc1cc([C@](C)(O)C#Cc2cc3c(cc2F)C2CC(C2)n2cc(C(N)=O)nc2-3)no1 : IC50 is 102 nM

* * *

Recorded pKi by entry
Biological target: PI3-kinase p110-delta/p85-alpha (Homo sapiens)
Sequence (P27986 whole entry): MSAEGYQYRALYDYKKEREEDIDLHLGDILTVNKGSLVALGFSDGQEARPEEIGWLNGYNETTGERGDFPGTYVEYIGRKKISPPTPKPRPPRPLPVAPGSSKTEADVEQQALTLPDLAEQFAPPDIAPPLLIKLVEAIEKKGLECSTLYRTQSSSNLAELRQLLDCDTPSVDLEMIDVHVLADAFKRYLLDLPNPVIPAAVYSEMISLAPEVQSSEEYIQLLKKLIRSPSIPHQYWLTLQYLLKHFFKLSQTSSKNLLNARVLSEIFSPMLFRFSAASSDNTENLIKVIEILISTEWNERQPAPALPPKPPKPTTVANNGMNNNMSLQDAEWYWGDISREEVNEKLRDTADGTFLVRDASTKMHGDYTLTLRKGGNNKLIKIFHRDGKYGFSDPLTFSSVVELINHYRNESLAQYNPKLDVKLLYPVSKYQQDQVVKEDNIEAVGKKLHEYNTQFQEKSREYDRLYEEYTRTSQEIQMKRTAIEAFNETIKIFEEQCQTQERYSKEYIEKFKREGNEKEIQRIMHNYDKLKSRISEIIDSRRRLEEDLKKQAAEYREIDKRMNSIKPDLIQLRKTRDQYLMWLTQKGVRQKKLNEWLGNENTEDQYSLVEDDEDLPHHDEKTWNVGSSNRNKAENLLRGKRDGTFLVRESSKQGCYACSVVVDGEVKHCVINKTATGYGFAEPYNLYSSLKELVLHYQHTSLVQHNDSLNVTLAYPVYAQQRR
Sequence (O00329 whole entry): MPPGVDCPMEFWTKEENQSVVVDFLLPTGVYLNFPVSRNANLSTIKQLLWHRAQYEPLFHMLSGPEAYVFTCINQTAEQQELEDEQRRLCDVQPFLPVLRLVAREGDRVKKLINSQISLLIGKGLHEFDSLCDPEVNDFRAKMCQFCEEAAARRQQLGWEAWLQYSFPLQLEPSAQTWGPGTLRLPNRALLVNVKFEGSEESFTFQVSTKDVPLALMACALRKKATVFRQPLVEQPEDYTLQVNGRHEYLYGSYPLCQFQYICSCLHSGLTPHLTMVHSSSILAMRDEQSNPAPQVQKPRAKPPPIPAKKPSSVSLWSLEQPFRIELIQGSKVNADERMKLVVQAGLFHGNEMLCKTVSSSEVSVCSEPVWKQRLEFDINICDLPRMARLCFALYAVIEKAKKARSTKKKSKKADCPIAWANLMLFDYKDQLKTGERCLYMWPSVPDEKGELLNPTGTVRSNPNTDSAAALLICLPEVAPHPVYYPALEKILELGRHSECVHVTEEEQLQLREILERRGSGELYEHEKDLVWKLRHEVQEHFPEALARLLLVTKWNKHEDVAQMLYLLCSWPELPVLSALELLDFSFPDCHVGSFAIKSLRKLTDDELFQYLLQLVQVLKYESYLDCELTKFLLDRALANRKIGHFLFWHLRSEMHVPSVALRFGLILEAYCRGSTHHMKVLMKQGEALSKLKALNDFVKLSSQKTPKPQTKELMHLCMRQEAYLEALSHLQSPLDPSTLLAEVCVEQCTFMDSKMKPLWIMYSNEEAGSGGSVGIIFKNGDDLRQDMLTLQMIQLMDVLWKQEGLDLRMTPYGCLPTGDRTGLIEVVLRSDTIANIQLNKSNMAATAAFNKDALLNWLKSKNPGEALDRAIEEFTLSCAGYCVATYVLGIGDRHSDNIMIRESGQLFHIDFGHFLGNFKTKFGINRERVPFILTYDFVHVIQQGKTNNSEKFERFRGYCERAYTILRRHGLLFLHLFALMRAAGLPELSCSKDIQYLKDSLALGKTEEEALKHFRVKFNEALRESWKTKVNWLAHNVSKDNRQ
Assay: Inhibition of N-terminal His6-tagged recombinant full-length human p110delta/untagged recombinant full length human p85alpha expressed in baculovirus infected Sf21 insect cells using PIP2:3PS lipid substrate after 120 mins by ADP-Glo assay
pKi: −log10 of the molar value.

CC(C)(O)C#Cc1ccc2c(c1)-c1nc(C(N)=O)cn1CCO2
6.49
C[C@@H]1Cn2cc(C(N)=O)nc2-c2cc(C#CC(C)(C)O)ccc2O1
< 6.00
CNC(=O)c1c(C(N)=O)nc2n1CCOc1ccc(C#C[C@@](C)(O)c3cc(C)on3)cc1-2
< 6.00
CC(C)(O)C#Cc1cc2c(cc1F)OCCn1c-2nc(C(N)=O)c1C#N
< 6.00
CC(C)(O)C#Cc1cc2c(cc1F)C1CC(C1)n1cc(C(N)=O)nc1-2
< 6.00
CC(C)(O)C#Cc1cc2c(cc1F)OCCn1c-2nc(C(N)=O)c1Cc1ccccc1F
< 6.00

Summary: CC(C)(O)C#Cc1ccc2c(c1)-c1nc(C(N)=O)cn1C1CC2C1 , PI3-kinase p110-delta/p85-alpha (Homo sapiens), pKi = < 6.00

Summary: CC(C)(O)C#Cc1cc2c(cc1F)OCCn1c-2nc(C(N)=O)c1C1CC1 , PI3-kinase p110-delta/p85-alpha (Homo sapiens), pKi = < 6.00

Summary: CC(C)(O)C#Cc1ccc2c(c1)-c1nc(C(N)=O)sc1C(O)CO2 (racemic) , PI3-kinase p110-delta/p85-alpha (Homo sapiens), pKi = < 6.00

Summary: CNC(=O)c1c(C(N)=O)nc2n1CCOc1cc(F)c(C#CC(C)(C)O)cc1-2 , PI3-kinase p110-delta/p85-alpha (Homo sapiens), pKi = < 6.00

Summary: Cc1cc([C@](C)(O)C#Cc2cc3c(cc2F)C2CC(C2)n2cc(C(N)=O)nc2-3)no1 , PI3-kinase p110-delta/p85-alpha (Homo sapiens), pKi = < 6.00

Summary: C[C@H]1Cn2cc(C(N)=O)nc2-c2cc(C#CC(C)(C)O)ccc2O1 , PI3-kinase p110-delta/p85-alpha (Homo sapiens), pKi = < 6.00

Summary: CC(C)(O)C#Cc1ccc2c(c1)-c1nc(C(N)=O)sc1C(F)(F)CO2 , PI3-kinase p110-delta/p85-alpha (Homo sapiens), pKi = < 6.00

Summary: CC(C)(O)C#Cc1ccc2c(c1)-c1nc(C(N)=O)sc1CCO2 , PI3-kinase p110-delta/p85-alpha (Homo sapiens), pKi = 6.67

Summary: CC(C)(O)C#Cc1cc2c(cc1F)OCCn1c-2nc(C(N)=O)c1-c1cn[nH]c1 , PI3-kinase p110-delta/p85-alpha (Homo sapiens), pKi = < 6.00

Summary: Cn1nccc1Cc1c(C(N)=O)nc2n1CCOc1cc(F)c(C#CC(C)(C)O)cc1-2 , PI3-kinase p110-delta/p85-alpha (Homo sapiens), pKi = < 6.00

Summary: CN(C)C(=O)c1c(C(N)=O)nc2n1CCOc1cc(F)c(C#CC(C)(C)O)cc1-2 , PI3-kinase p110-delta/p85-alpha (Homo sapiens), pKi = < 6.00

Summary: Cc1c(C(N)=O)nc2n1CCOc1cc(F)c(C#CC(C)(C)O)cc1-2 , PI3-kinase p110-delta/p85-alpha (Homo sapiens), pKi = < 6.00

Summary: Cc1cc([C@](C)(O)C#Cc2cc3c(cc2F)OCCn2cc(C(N)=O)nc2-3)no1 , PI3-kinase p110-delta/p85-alpha (Homo sapiens), pKi = 7.33

* * *

Assay: Thermodynamic solubility of compound at pH 7.4
Format: physicochemical
Conditions: buffer, read-out: Therm_solubility
VALUE_TYPE: solubility thermodynamic (µg/mL)
Please state the figure in µg/mL; there is no need to write the unit.

Cc1cc([C@](C)(O)C#Cc2cc3c(cc2F)C2CC(C2)n2cc(C(N)=O)nc2-3)no1
32

Then there is this compound:
What the record says about CNC(=O)c1c(C(N)=O)nc2n1CCOc1ccc(C#C[C@@](C)(O)c3cc(C)on3)cc1-2 : solubility thermodynamic is 9

* * *

Recorded clearance by entry
Assay: Plasma clearance in cynomolgus monkey
Assay type: ADME, Macaca fascicularis
Please state the figure in mL/min/kg; there is no need to write the unit.

CNC(=O)c1c(C(N)=O)nc2n1CCOc1ccc(C#C[C@@](C)(O)c3cc(C)on3)cc1-2
21

Then there is this molecule:
What the record says about Cc1cc([C@](C)(O)C#Cc2cc3c(cc2F)C2CC(C2)n2cc(C(N)=O)nc2-3)no1 : clearance is 13
